Where do the numbers come from? From PubChem BioAssay (NCI).

Experimental protocol: NCI Yeast Anticancer Drug Screen. Data for the mec2-1 strain (AID 157)
Applied conditions: S. cerevisiae mec2-1 strain, at 100.0 µM
The panel holds about 79,000 compounds, 15% with a hit somewhere; the sample as a whole holds those more often. The source made the active and inactive calls. Rule as the data show it: active = growth inhibition above about 70%; inactive = the rest.
Response enum: t for active, f for inactive

stdin: What classification did CC1=CC2C(C(C)C)CC1C1C(=O)OC(=O)C21 (stereo not given) end up with in this test?
stdout: f

stdin: What classification did `CCOC(=O)c1csc(Br)n1` end up with in this test?
stdout: f

stdin: What classification did `O=c1ccc(N=Nc2ccccc2)ccc1O` end up with in this test?
stdout: t

stdin: What classification did `COc1cc(NCc2ccc3nc(N)nc(N)c3c2C)cc(OC)c1OC` end up with in this test?
stdout: t

stdin: What classification did `CCOC(=O)C1=C(C)NC(C)=C(C(=O)OCC)C1c1ccccc1Cl` end up with in this test?
stdout: t
